tested on: HCC-2998 colon; assay: NCI tumour cell line growth inhibition, 48 h
Measurement name: TGI

Molecule | TGI
O=[N+]([O-])c1ccc(-c2csc(=[N+]3CCCCC3)s2)cc1 | > 100 µM
O=C1c2cc3c(cc2-c2c1c1ccc(Cl)cc1c(=O)n2CCCn1ccnc1)OCO3 | > 100 µM
C[As+](C)(c1ccc(Br)c([N+](=O)[O-])c1)c1ccc(Br)c([N+](=O)[O-])c1.O=[N+]([O-])O | > 100 µM

input: For the record `O=c1c2ccc(Cl)cc2oc2c(CNc3ccc(S(=O)(=O)Nc4ncccn4)cc3)cccc12` , what value of TGI is listed for HCC-2998 colon?
output: > 100 µM

input: Moving on to the next molecule: `COc1cc(C(=O)c2cocc2C(=O)c2ccc3c(c2)OCO3)cc(OC)c1OC`
output: 16.9 µM

input: Moving on to the next molecule: `COc1cc2nccc(Oc3ccc(NC(=O)c4cn(C(C)C)c(=O)n(-c5ccc(F)cc5)c4=O)cc3F)c2cc1OC`
output: > 100 µM

input: Moving on to the next molecule: COc1ccc(C2C=C(c3ccc(C)cc3)N(c3ccc(OC)cc3[N+](=O)[O-])C3C(=O)OC(=O)C23)c(OC)c1 (centres undefined)
output: 79.4 µM

input: Moving on to the next molecule: `O=C1C=CC(=O)c2c(O)c(N3CCC[C@@H]3CO)c(Cl)c(O)c21`
output: 3.49 µM

input: Moving on to the next molecule: `COc1cc2cnc3c4cc(OCc5ccccc5)ccc4ccc3c2cc1OC`
output: > 100 µM
